Would you mind telling me the reported Inhibition Potency KI (associated IgG, in parentheses) of each entry?
target: T1, BACE1 (Homo sapiens, UniProt P56817); experiment: FRET peptide inhibition assay, BACE1 (M-2420); type: biochemical; conditions: IgG format; BACE-1, FRET peptide
T1 construct: human β-secretase 1 (BACE1, residue 46-457); made in house; host or cells: HEK293F (secreted, protein A purified)
T1 sequence (P56817 46-457): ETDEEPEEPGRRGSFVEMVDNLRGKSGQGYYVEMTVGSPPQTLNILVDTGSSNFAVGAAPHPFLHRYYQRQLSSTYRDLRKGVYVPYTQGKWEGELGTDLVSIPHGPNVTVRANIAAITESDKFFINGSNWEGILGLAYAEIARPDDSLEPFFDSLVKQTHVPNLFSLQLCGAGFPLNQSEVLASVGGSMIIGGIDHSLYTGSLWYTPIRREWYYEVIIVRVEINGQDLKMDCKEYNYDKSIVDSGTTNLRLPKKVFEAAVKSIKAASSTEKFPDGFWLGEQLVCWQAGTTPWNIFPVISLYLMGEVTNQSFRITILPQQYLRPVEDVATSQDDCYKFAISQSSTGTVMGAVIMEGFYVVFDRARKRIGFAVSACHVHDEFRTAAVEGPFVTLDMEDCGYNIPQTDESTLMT
Numeric only. Scale: nM

Consider the molecule IgG B1A4: anti-BACE1 inhibitory Fab B1A4 converted into IgG format (antibody, V domains shown) VH: EVQLVESGGGLVQPGGSLRLSCAASGFNISYSSIHWVRQAPGKGLEWVAYISPSSSYTSYADSVKGRFTISADTSKNTAYLQMNSLRAEDTAVYYCARHYYVSVGSGIDYWGQGTLVTVSSAS VL: DIQMTQSPSSLSASVGDRVTITCRASQSVSSAVAWYQQKPGKAPKLLIYSASSLYSGVPSRFSGSRSGTDFTPTISSLQPEDFATYYCQQASASPYALITFGQGTKVEIKR and give its measured Inhibition Potency KI (associated IgG, in parentheses).
35

Consider the molecule Fab B3B12: anti-BACE-1 antibody clone; VL SEQ ID NO:25, VH SEQ ID NO:29, CDR-H3 SEQ ID NO:32 (antibody, V domains shown) VH: EVQLVESGGGLVQPGGSLRLSCAASGFNIPYSSMHWVRQAPGKGLEWVASISSYSSSTSYADSVKGRFTISADTSKNTAYLQMNSLRAEDTAVYYCARYICGHRWRDFDMWRARTGVNYAMDYWGQGTLVTVSSAS VL: DIQMTQSPSSLSASVGDRVTITCRASQSVGTYLNWYQQKPGKAPKLLIYATSNLRSGVPSRFSGSGSGTDFTLTISSLQPEDFATYYCQQSYSIPRFTFGPGTKLEIKR and give its measured Inhibition Potency KI (associated IgG, in parentheses).
13

Consider the molecule IgG B3B12: anti-BACE1 inhibitory Fab B3B12 converted into IgG format (antibody, V domains shown) VH: EVQLVESGGGLVQPGGSLRLSCAASGFNIPYSSMHWVRQAPGKGLEWVASISSYSSSTSYADSVKGRFTISADTSKNTAYLQMNSLRAEDTAVYYCARYICGHRWRDFDMWRARTGVNYAMDYWGQGTLVTVSSAS VL: DIQMTQSPSSLSASVGDRVTITCRASQSVGTYLNWYQQKPGKAPKLLIYATSNLRSGVPSRFSGSGSGTDFTLTISSLQPEDFATYYCQQSYSIPRFTFGPGTKLEIKR and give its measured Inhibition Potency KI (associated IgG, in parentheses).
13

Origin of measurements: patent US11332546B2
